# measurement_target: T1, recombinant His-tagged human FRα (human, UniProt P15328 25-234)
# T1 construct: Bought protein; also called hFRα; FRα-HIS
# T1 sequence (P15328 25-234 limits assumed): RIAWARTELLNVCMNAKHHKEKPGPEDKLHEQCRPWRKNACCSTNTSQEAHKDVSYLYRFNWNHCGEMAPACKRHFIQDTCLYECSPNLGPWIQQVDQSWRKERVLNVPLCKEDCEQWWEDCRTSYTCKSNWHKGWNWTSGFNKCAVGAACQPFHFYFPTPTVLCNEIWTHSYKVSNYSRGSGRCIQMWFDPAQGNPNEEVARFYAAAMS
# assay_comment: BLI, supernatant, n=1
Task for the reader: assign each of the following binders its reported Kd.
Use µM as the unit, but write only the number.

IN: Please look up its Kd: v23812 (antibody, human IgG1, kappa, V domains shown, also called humanized 8K22 H4L4) VH: EVQLVESGGGLVQPGGSLRLSCAASGFTISNNYYMCWVRQAPGKGLEWIACIYGGISGRTYYADSAKGRFTISKDSSNTVYLQMNSLRAEDTAVYYCVRGYVGTSNLWGQGTLVTVSS VL: DIQMTQSPSSLSASVGDRVTITCQASQSIYSSLAWYQQKPGKAPKLLIYDASHLASGVPSRFSGSGSGTDFTLTISSVQPEDAATYYCQGGWYSSAATYVPNTFGGGTKVEVKR
OUT: 0.0195

IN: Repeat with v23806 (antibody, human IgG1, kappa, V domains shown, also called humanized 8K22 H3L3) VH: EVQLVESGGGLVQPGGSLRLSCAASGFTISNNYYMCWVRQAPGKGLEWIACIYGGISGRTYYADSAKGRFTISKDSSKNTVYLQMNSLRAEDTAVYYCVRGYVGTSNLWGQGTLVTVSS VL: DIQMTQSPSSLSASVGDRVTITCQASQSIYSSLAWYQQKPGKAPKLLIYDASHLASGVPSRFSGSRYGTDFTLTISSVQPEDFATYYCQGGWYSSAATYVPNTFGGGTKVEVKR
OUT: 0.0115

IN: Next binder up: v23814 (antibody, human IgG1, kappa, V domains shown, also called humanized 8K22 H1L5) VH: EVQLVESGGGLVQPGGSLRLSCAASGFTISNNYYMCWVRQAPGKGLEWVSCIYGGISGRTYYADSVKGRFTISKDNSKNTLYLQMNSLRAEDTAVYYCVRGYVGTSNLWGQGTLVTVSS VL: DIQMTQSPSSLSASVGDRVTITCQASQSIYSSLAWYQQKPGKAPKLLIYDASHLASGVPSRFSGSRYGTDFTLTISSVQPEDAATYYCQGGWYSSAATYVPNTFGGGTKVEVKR
OUT: 0.0101

IN: Also v23808 (antibody, human IgG1, kappa, V domains shown, also called humanized 8K22 H5L3) VH: EVQLVESGGGLVQPGGSLRLSCAASGFTISNNYYMCWVRQAPGKGLEWIACIYGGISGRTYYADWAKGRFTISKDSSKNTVYLQMNSLRAEDTAVYYCVRGYVGTSNLWGQGTLVTVSS VL: DIQMTQSPSSLSASVGDRVTITCQASQSIYSSLAWYQQKPGKAPKLLIYDASHLASGVPSRFSGSRYGTDFTLTISSVQPEDFATYYCQGGWYSSAATYVPNTFGGGTKVEVKR , if possible.
OUT: 0.0193

IN: Could you do the same for v23804 (antibody, human IgG1, kappa, V domains shown, also called humanized 8K22 H1L3) VH: EVQLVESGGGLVQPGGSLRLSCAASGFTISNNYYMCWVRQAPGKGLEWVSCIYGGISGRTYYADSVKGRFTISKDNSKNTLYLQMNSLRAEDTAVYYCVRGYVGTSNLWGQGTLVTVSS VL: DIQMTQSPSSLSASVGDRVTITCQASQSIYSSLAWYQQKPGKAPKLLIYDASHLASGVPSRFSGSRYGTDFTLTISSVQPEDFATYYCQGGWYSSAATYVPNTFGGGTKVEVKR , please?
OUT: 0.00929
